Test system: HCT-15
Observable: GI50

{"columns": ["Molecule", "Measured"],
 "data": [
  ["CC(=O)OC1[C@H]2c3cc4c(cc3CN3CCC(=C[C@@H]1O)C23)OCO4 (some centres undefined)", "> 100 µM"],
  ["O=C(/C=C/c1ccccc1)c1ccc(Cl)cc1Cl", "13.1 µM"],
  ["O=C1CSC(c2c[nH]c3ccccc23)N1c1cccc([N+](=O)[O-])c1 (centres undefined)", "42.9 µM"],
  ["N=C(N)NC(=N)Nc1ccc(S(N)(=O)=O)cc1", "> 100 µM"]
]}

* * *

System: A498
Assay Protocol: NCI tumour cell line growth inhibition, 48 h
Activity calls are given as the source filed them. No stated cut-off is given here; in the data, active = GI50 up to about 1.1 µM and inactive = higher.
Possible outcomes: active, inactive

{"columns": ["Compound", "Group Label"],
 "data": [
  ["CN(C)CCN(C)c1ccc2c(=O)n(CCN(C)C)c(=O)n3c4ccccc4c(=O)c1c23", "active"],
  ["O=S(=O)(O)c1ccc(-c2c3nc(c(-c4ccc(S(=O)(=O)O)cc4)c4ccc([nH]4)c(-c4ccc(S(=O)(=O)O)cc4)c4nc(c(-c5ccc(S(=O)(=O)O)cc5)c5ccc2[nH]5)C=C4)C=C3)cc1", "inactive"],
  ["C=C1C(C(=O)OC)[C@H]1C(=O)OC (stereo partly specified)", "inactive"],
  ["C[N+](C)(C)CC(=O)N/N=C\\c1c(O)ccc2ccccc12", "inactive"],
  ["COc1ccc(-c2nnc(-c3c(C)n(C)n(-c4ccccc4)c3=O)o2)cc1", "inactive"],
  ["Cc1[nH]c(/C=C2\\C(=O)Nc3ccccc32)c(C)c1CCC(=O)O [ORANTINIB]", "inactive"],
  ["CC(=O)OCC(C)C1=C(O)C(=O)C2(C)C/C=C(/C)CC/C=C(\\C)CCC(O)C(C)CCC12 (stereo unspecified)", "inactive"],
  ["CC(C)(C)c1cc(C(=O)/C=C/c2ccc(C(=O)O)cc2)cc(C(C)(C)C)c1", "inactive"],
  ["C/C=C/C=N/N(c1nnc(-c2ccccc2)c(-c2ccccc2)n1)S(=O)(=O)c1ccc(C)cc1", "inactive"],
  ["O=C(O)CSc1nnc(COc2ccc(Cl)cc2)n1-c1ccccc1", "inactive"],
  ["O=C1C2=Cc3ccccc3OC2(O)Oc2ccccc21 (stereo unspecified)", "inactive"],
  ["COc1ccc(C2CC(c3ccc4ccccc4c3O)=NN2)cc1OC (stereo unspecified)", "inactive"],
  ["CCCC(=O)OC[n+]1ccc2c(C)c3[nH]c4ccccc4c3c(C)c2c1", "inactive"],
  ["COc1cc2oc(-c3ccc(O)cc3)cc(=O)c2c(O)c1C1OC(CO)C(O)C(O)C1O (stereo unspecified)", "inactive"],
  ["Cc1cc2c(c(N)c1C)C(=O)c1ccccc1C2=O", "inactive"],
  ["CCc1nc2cc(F)ccc2[nH]c1=O", "inactive"]
]}
